- Test summary: in vivo
- Assay conditions: DBA/2, mouse, iv, well tolerated dose
Non-standard residues stand in square brackets, D forms with d. Residues, ends and D or L forms follow the SMILES beside them. 1Nal = N[C@@H](Cc1cccc2ccccc12)C(=O)O; 2Thi = N[C@@H](Cc1cccs1)C(=O)O; Nva = CCC[C@H](N)C(=O)O

Compound: CCC[C@H](NC(=O)[C@H](CCC(N)=O)NC(=O)[C@@H](NC(=O)[C@H](CCC)NC(=O)[C@H](Cc1cccc2ccccc12)NC(=O)[C@H](N)CCCCN)[C@@H](C)CC)C(=O)N[C@H](C(=O)N[C@@H](Cc1cccs1)C(=O)N[C@H](CCCCN)C(=O)N[C@H](CCCCN)C(N)=O)C(C)C [XMP.676] (H-[dK][1Nal][Nva]IQ[Nva]V[2Thi][dK][dK]-NH2)
MTD (mg/kg): 2.5
